The origin of these recorded values is ChEMBL document CHEMBL1149607.

# System: Candida albicans
# assay: Antifungal activity against Candida albicans by microdilution broth method
# Format: functional
property: MIC (µg/mL)

Examples from the recorded data:
{"smiles.input": "CCCCS(=O)(=O)NCCCNS(=O)(=O)CCCC", "obs.value": 315}
{"smiles.input": "CCCS(=O)(=O)NCCCCNS(=O)(=O)CCC", "obs.value": 336}
{"smiles.input": "CCCS(=O)(=O)NCCCNS(=O)(=O)CCC", "obs.value": 532}
{"smiles.input": "CCCCS(=O)(=O)NCCCCNS(=O)(=O)CCCC", "obs.value": 555}

I: CCCS(=O)(=O)NCCNS(=O)(=O)CCC
II: CCCCS(=O)(=O)NCCCCCNS(=O)(=O)CCCC
Which gives the smaller MIC number: I or II ? Respond with the label that goes with your answer. I
(I: 300 µg/mL, II: 540 µg/mL)
